Test system: MAP4K3;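 further: KINOMEscan kinase panel screen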
Details: concentration: 1 μM, replicates: in singlicate; n = 1
Listed below: %Inh values for each entry.
quantityMeasured: %Inh (%)

INSERT INTO results (molecule, quantitymeasured, value) VALUES
  ('c1ccc(-c2cc(-c3c[nH]nc3-c3ccccn3)ccn2)cc1 [GW576604]', '%Inh', 0),
  ('O=C(NOCC1CC1)c1ccc(F)c(F)c1Nc1ccc(I)cc1Cl', '%Inh', 0),
  ('COc1cc2c(cc1OCCN1CCN(C)CC1)ncc1c3ccc(C#N)cc3[nH]c21', '%Inh', 12),
  ('Cc1ccc(NC(=O)c2ccnc(N3CCN(C)CC3)c2)cc1-c1ccc(C(=O)NCC2CC2)cc1 [GW775604]', '%Inh', 9),
  ('Cc1c2ccc(N(C)c3ccnc(Nc4cccc(S(N)(=O)=O)c4)n3)cc2nn1Cc1ccccc1.Cl.Cl [GW787226]', '%Inh', 70);
